biological target: T1, cynomolgus monkey GPVI extracellular domain fused at its C-terminus to human IgG1 Fc (GPVI-Fc) (cynomolgus monkey; human); assay: Competition ELISA (MSD): cynomolgus GPVI-Fc preincubated with Fab, then on coated VitroCol (competitor)
T1 construct: also called cyGPVI-2; cyGPVI
Measure Name: Max. inhibition at 200 nM Fab [%] (%)
Give the quantity in %, number only.

Examples with their reported Max. inhibition at 200 nM Fab [%] follow.
{"Binder": "Fab #2 comprising a modified heavy chain constant region (Fab, V domains shown, Human Fab from the Ylanthia library; produced in HKB11 cells; also called Fab #2 mod; HC) VH: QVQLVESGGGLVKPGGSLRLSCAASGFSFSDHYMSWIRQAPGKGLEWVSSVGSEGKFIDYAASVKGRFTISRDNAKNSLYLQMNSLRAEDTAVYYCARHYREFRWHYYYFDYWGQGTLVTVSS VL: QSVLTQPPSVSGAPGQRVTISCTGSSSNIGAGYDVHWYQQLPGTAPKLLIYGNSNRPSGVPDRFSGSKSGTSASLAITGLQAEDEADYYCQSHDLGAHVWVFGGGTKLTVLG", "Quantitative Readout": 100}
{"Binder": "Fab #3 comprising a modified heavy chain constant region (Fab, V domains shown, Human Fab from the Ylanthia library; produced in HKB11 cells; also called Fab #3 mod; HC) VH: QVQLVESGGGLVKPGGSLRLSCAASGFSFGDYYVSWIRQAPGKGLEWVSAIGGSGSAVQYAESVKGRFTISRDNAKNSLYLQMNSLRAEDTAVYYCARHYREFRWHYYYFDYWGQGTLVTVSS VL: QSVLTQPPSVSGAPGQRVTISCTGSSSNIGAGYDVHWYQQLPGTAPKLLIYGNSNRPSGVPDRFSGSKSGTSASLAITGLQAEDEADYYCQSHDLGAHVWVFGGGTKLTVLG", "Quantitative Readout": 100}
{"Binder": "Fab #4 comprising a modified heavy chain constant region (Fab, V domains shown, Human Fab from the Ylanthia library; produced in HKB11 cells; also called Fab #4 mod; HC) VH: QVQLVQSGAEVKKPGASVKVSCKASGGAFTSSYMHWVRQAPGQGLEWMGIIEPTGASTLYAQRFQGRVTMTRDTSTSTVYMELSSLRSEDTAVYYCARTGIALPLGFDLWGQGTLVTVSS VL: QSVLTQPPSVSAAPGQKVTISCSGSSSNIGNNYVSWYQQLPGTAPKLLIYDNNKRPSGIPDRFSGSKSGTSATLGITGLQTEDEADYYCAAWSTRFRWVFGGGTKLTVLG", "Quantitative Readout": 91}
{"Binder": "Fab #1 comprising a modified heavy chain constant region (Fab, V domains shown, Human Fab from the Ylanthia library; produced in HKB11 cells; also called Fab #1 mod; HC) VH: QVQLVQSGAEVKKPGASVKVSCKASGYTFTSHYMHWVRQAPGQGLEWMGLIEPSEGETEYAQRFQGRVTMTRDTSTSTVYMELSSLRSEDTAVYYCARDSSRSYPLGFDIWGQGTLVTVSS VL: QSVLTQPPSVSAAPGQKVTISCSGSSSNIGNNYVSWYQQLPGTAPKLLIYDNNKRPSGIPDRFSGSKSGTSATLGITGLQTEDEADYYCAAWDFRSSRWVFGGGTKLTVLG", "Quantitative Readout": 84}

// next entry
binder Reference Control Antibody RefFab #1 (humanized GPVI antibody of WO2011073954A2, SANOFI) (Fab, V domains shown, Cloned into mammalian Fab expression vectors; a glycine-serine linker (G4S)2 was added to the C-terminus of the Fab heavy chain) VH: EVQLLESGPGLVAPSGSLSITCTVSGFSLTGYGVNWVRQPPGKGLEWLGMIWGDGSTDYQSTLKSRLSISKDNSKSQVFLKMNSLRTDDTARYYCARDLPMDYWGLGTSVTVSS VL: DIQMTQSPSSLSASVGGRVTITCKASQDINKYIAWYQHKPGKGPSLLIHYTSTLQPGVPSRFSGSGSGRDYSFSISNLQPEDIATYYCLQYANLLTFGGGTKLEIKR , Max. inhibition at 200 nM Fab [%] observed: 100
